test system: SF-295 CNS; experiment: NCI tumour cell line growth inhibition, 48 h
outcome measure: TGI

Qu. Field request: TGI | item: COc1cc(S(=O)(=O)Nc2nc(-c3ccc(N4C(=O)CSC4c4cccs4)cc3)cs2)ccc1Cl (stereo unspecified)
Ans. > 100 µM

Qu. And for `CCN(CC)CSc1nc2ccccc2o1` ?
Ans. > 100 µM

Qu. And for `COc1cc2c(cc1OCCCOc1cc3c(cc1OC)C(=O)N1C[C@H](F)C[C@H]1C=N3)N=C[C@@H]1C[C@@H](F)CN1C2=O` ?
Ans. 18.1 µM

Qu. And for O=C(Nc1ccc(Cl)cc1)C(=O)C(C(=O)c1ccccc1-c1ccccc1)C1OC(=O)c2ccccc21 (stereo unspecified) ?
Ans. > 100 µM

Qu. And for `CN(C)C=C1C(=O)c2c(Br)sc(Br)c2C1=O` ?
Ans. 49.7 µM

Qu. And for `Cc1cc([C@H](C#N)c2nc3ccccc3[nH]2)nc(Cl)n1` ?
Ans. > 100 µM

Qu. And for CCOC(=O)C(SCCO)C(C(=O)OCC)n1cnc2c(N)ncnc21 (stereo unspecified) ?
Ans. > 100 µM

Qu. And for c1ccc2c(c1)CCC/C2=N\OCC1CO1 (stereo unspecified) ?
Ans. > 100 µM

Qu. And for `O=C(/C=C/c1ccc(F)cc1)c1ccc(Cl)cc1Cl` ?
Ans. > 100 µM

Qu. And for `O=C(O)c1ccc(P(=O)(O)c2ccc(C(=O)O)cc2Br)c(Br)c1` ?
Ans. > 100 µM

Qu. And for `Cc1oc2c(c1C)S(=O)(=O)C(C#N)=C(c1ccccc1)N2` ?
Ans. > 100 µM
